Settings: human
Metric name: Hepatotoxicity (cytolytic)
Answer with a number only.

[[record]]
compound = "CN1CCN(C2=Nc3cc(F)ccc3Cc3ccccc32)CC1 [FLUPERLAPINE]"
meas_value = 0

[[record]]
compound = "CC(C)(S)C(=O)N[C@@H](CS)C(=O)O [BUCILLAMINE]"
meas_value = 0

[[record]]
compound = "CN1CCC(=C2c3ccccc3CC(=O)c3sccc32)CC1 [KETOTIFEN]"
meas_value = 0

[[record]]
compound = "O=CN(O)CCCP(=O)(O)O [FOSMIDOMYCIN]"
meas_value = 0

[[record]]
compound = "Cc1nnc(NS(=O)(=O)c2ccc(N)cc2)s1 [SULFAMETHIZOLE]"
meas_value = 2


# Hepatotoxicity (cytolytic) (compound: Nc1ncnc2c1ncn2CCOCP(=O)(O)O [ADEFOVIR] ) is 1

# Hepatotoxicity (cytolytic) (compound: COc1ccccc1Oc1c(NS(=O)(=O)c2ccc(C(C)(C)C)cc2)nc(-c2ncccn2)nc1OCCO [BOSENTAN] ) is 4

# Hepatotoxicity (cytolytic) (compound: C[C@H](C(=O)O)c1ccc2oc(-c3ccc(F)cc3)nc2c1 [FLUNOXAPROFEN] ) is 0

----------
Conditions: human
Listed here: items and their measured Hepatotoxicity (choleostasis).
Answer with a number only.

Please review the following examples before continuing.
[[record]]
molecule = "CN(C)C(=O)Oc1cc(OC(=O)N(C)C)cc(C(O)CNC(C)(C)C)c1 (centres undefined)"
meas_value = 0

[[record]]
molecule = "Cc1oc(=O)oc1CN1CCN(c2cc3c(cc2F)c(=O)c(C(=O)O)c2n3C(C)S2)CC1 (centres undefined)"
meas_value = 0

[[record]]
molecule = "CC1=C(C(=O)O)N2C(=O)[C@@H](NC(=O)[C@H](N)c3ccc(O)cc3)[C@H]2SC1"
meas_value = 2


# Hepatotoxicity (choleostasis) (molecule: CCOC(=O)NNc1nncc2ccccc12 ) is 0

# Hepatotoxicity (choleostasis) (molecule: C1CCC(C(CC2CCCCN2)C2CCCCC2)CC1 (centres undefined) ) is 2

# Hepatotoxicity (choleostasis) (molecule: CCOC(=O)[C@H](CCc1ccccc1)N[C@@H](C)C(=O)N(CC(=O)O)C1Cc2ccccc2C1 ) is 0

# Hepatotoxicity (choleostasis) (molecule: CCN1CCCC1CNC(=O)c1cc(S(N)(=O)=O)ccc1OC (centres undefined) [SULPIRIDE] ) is 1

----------
Experiment: Proposed mechanism(s) of liver damage. [column 'MEC' in source]
Conditions: human, Liver
Metric name: Hepatotoxicity (mechanism)

[[record]]
chem_smiles = "CCCCNC(=N)NC(=N)N"
metric_name = "Hepatotoxicity (mechanism)"
meas_value = "Allergic"

[[record]]
chem_smiles = "O=C(O)c1cc(-c2ccc(F)cc2F)ccc1O"
metric_name = "Hepatotoxicity (mechanism)"
meas_value = "Allergic"

[[record]]
chem_smiles = "CNCCCN1c2ccccc2CCc2ccccc21"
metric_name = "Hepatotoxicity (mechanism)"
meas_value = "Allergic"


----------
Details: human, serum
Metric name: Hepatotoxicity (acute)
Answer with a number only.

# Hepatotoxicity (acute) (compound: Nc1cc(-c2ccncc2)c[nH]c1=O ) is 6

# Hepatotoxicity (acute) (compound: N=C(N)c1ccc(/C=C/c2ccc(C(=N)N)cc2)cc1 ) is 1

# Hepatotoxicity (acute) (compound: CC(/C=N/NC(=N)N)=N\NC(=N)N ) is 0

----------
Settings: human, serum
Mark class 1 for Hepatotoxicity (moderate) under 1, class 0 if at or over.

Solved cases (5 shown):
[[record]]
compound = "C[Si](C)(C)c1cccc(C(=O)C(F)(F)F)c1"
assigned_category = "class 0"

[[record]]
compound = "CC[N+](C)(C/C=C/C1=C(C(=O)[O-])N2C(=O)[C@@H](NC(=O)/C(=N\\OCF)c3nsc(N)n3)[C@H]2SC1)CC(N)=O (some centres undefined)"
assigned_category = "class 0"

[[record]]
compound = "Cc1c(OCC(F)(F)F)ccnc1C[S+]([O-])c1nc2ccccc2[nH]1 (centres undefined)"
assigned_category = "class 0"

[[record]]
compound = "C[C@@](Cc1ccc(O)c(O)c1)(NN)C(=O)O.O"
assigned_category = "class 1"

[[record]]
compound = "CC(Cc1ccccc1)NN (centres undefined)"
assigned_category = "class 1"


Data request: Strictly below 1: is that where Hepatotoxicity (moderate) of CC(C)(S)[C@@H](N)C(=O)O sits?
Data returned: class 0

Data request: Strictly below 1: is that where Hepatotoxicity (moderate) of NC(=O)c1cc[n+](CC2=C(C(=O)O)N3C(=O)[C@@H](NC(=O)[C@@H](c4ccccc4)S(=O)(=O)[O-])[C@H]3SC2)cc1 sits?
Data returned: class 0

Data request: Strictly below 1: is that where Hepatotoxicity (moderate) of CCC(=O)O[C@@H](O[P@](=O)(CCCCc1ccccc1)CC(=O)N1C[C@H](C2CCCCC2)C[C@H]1C(=O)O)C(C)C sits?
Data returned: class 0

Data request: Strictly below 1: is that where Hepatotoxicity (moderate) of COc1ccc2c3c1O[C@H]1[C@@H](O)C=C[C@H]4[C@@H](C2)N(C)CC[C@@]341 sits?
Data returned: class 0

Data request: Strictly below 1: is that where Hepatotoxicity (moderate) of O=[N+]([O-])c1cc(Cl)cc(-c2cc(Cl)cc([N+](=O)[O-])c2O)c1O sits?
Data returned: class 1

Data request: Strictly below 1: is that where Hepatotoxicity (moderate) of O=C(c1cc(O)c(O)c(O)c1)c1ccc(O)c(O)c1O sits?
Data returned: class 1

Data request: Strictly below 1: is that where Hepatotoxicity (moderate) of Cc1cc(NS(=O)(=O)c2ccc(N)cc2)nc(C)n1 sits?
Data returned: class 1

Data request: Strictly below 1: is that where Hepatotoxicity (moderate) of CO[C@@]1(NC(=O)C(C(=O)[O-])c2ccc(O)cc2)C(=O)N2C(C(=O)[O-])=C(CSc3nnnn3C)CO[C@@H]21.[Na+].[Na+] (some centres undefined) [MOXALACTAM DISODIUM] sits?
Data returned: class 0

Data request: Strictly below 1: is that where Hepatotoxicity (moderate) of Cc1c(C(C)C)c(=O)n(-c2ccccc2)n1C sits?
Data returned: class 1

Data request: Strictly below 1: is that where Hepatotoxicity (moderate) of CCCCc1oc2ccccc2c1C(=O)c1cc(I)c(OCCN(CC)CC)c(I)c1 sits?
Data returned: class 0
